Molecular target: falcipain-2 (Plasmodium falciparum)
Construct: made in house; host or cells: E. coli
Sequence (Q8I6U4 244-484): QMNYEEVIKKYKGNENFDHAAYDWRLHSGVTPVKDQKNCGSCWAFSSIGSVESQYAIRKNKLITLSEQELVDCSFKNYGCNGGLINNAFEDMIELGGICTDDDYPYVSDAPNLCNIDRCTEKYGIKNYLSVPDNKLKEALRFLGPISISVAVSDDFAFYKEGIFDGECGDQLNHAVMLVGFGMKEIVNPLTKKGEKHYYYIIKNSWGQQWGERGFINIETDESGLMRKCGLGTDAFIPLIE
Test: Inhibition of recombinant falcipain-2, fluorometric microplate assay (Cbz-Phe-Arg-AMC)
Assay type: biochemical
endpoint: pIC50
Reminder that pIC50 is minus the log10 of a molar concentration.

Prompt: State its pIC50 for this compound: C=C(CC)C(=O)c1ccc(OCC(=O)N2CCN(CC)CC2)c(Cl)c1Cl
Completion: 3.84

* * *

Target: falcipain-3 (Plasmodium falciparum, UniProt Q8IIL0)
Construct: made in house; host or cells: E. coli
Sequence (Q8IIL0 243-492): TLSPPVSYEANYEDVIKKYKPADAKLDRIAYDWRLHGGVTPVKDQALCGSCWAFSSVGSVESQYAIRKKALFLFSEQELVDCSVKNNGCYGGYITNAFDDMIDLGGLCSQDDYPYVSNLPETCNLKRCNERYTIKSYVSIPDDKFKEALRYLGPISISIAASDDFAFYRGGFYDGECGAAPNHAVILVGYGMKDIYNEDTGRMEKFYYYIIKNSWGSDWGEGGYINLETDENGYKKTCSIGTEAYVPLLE
Assay: Inhibition of recombinant falcipain-3, fluorometric microplate assay (Cbz-Leu-Arg-AMC)
Type: biochemical
Conditions: recombinant falcipain-3; ni = no inhibition; read-out: FP-3 IC50
Quick reference: pIC50 of the listed items.
Reminder that pIC50 is minus the log10 of a molar concentration.

{"compound": "C=C(CC)C(=O)c1ccc(OCC(=O)OCC)c(Cl)c1Cl [Compound 9]", "recorded-number": 3.79}
{"compound": "C=C(CC)C(=O)c1ccc(Cl)cc1OCC(=O)OCC [Compound 2]", "recorded-number": 3.42}
{"compound": "C=C(CC)C(=O)c1ccc(OCC(=O)NCCCCCCNC(=O)CCCCC2SCC3NC(=O)NC32)c(Cl)c1Cl (stereo not shown) [Compound 24]", "recorded-number": 4.92}

Prompt: State its pIC50 for this compound: C=C(CC)C(=O)c1ccc(OCC(=O)NCc2ccccc2)c(Cl)c1Cl [Compound 11]
Completion: 3.80
